Origin of the recorded values: ChEMBL document CHEMBL1127523

Readings of pIC50 for the listed compounds
target: Neuromedin-K receptor (Rattus norvegicus); assay: Concentration required to inhibit the specific binding of [125I]BH-ELE to Neurokinin-3 (NK-3) receptor in rat brain synaptosomes
Sequence (P16177 whole entry): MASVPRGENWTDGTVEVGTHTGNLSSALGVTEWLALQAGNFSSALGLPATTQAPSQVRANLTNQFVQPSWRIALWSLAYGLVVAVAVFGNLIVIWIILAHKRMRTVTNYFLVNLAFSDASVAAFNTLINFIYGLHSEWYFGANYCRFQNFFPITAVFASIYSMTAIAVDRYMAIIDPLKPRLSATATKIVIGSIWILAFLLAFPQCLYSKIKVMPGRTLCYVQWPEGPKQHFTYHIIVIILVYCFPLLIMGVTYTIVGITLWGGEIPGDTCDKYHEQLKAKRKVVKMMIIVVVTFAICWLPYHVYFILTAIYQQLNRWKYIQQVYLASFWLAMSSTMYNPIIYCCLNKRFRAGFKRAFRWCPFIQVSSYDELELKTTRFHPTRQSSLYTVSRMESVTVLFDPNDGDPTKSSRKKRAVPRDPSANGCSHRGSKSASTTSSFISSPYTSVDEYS
pIC50: −log10 of the molar value. Non-standard residues stand in square brackets, D forms with d. Residues, ends and D or L forms follow the SMILES beside them. Dip = N[C@H](C(=O)O)C(c1ccccc1)c1ccccc1

- compound: "CSCC[C@H](NC(=O)[C@H](CC(C)C)NC(=O)[C@@H]1CCCN1C(=O)[C@@H](NC(=O)[C@H](Cc1ccccc1)NC(=O)[C@H](CCC(N)=O)NC(=O)[C@H](CCC(N)=O)NC(=O)[C@@H]1CCCN1C(=O)[C@H](CCCCN)NC(=O)[C@@H]1CCCN1C(=O)[C@@H](N)CCCN=C(N)N)C(c1ccccc1)c1ccccc1)C(N)=O (H-RPKPQQF[Dip]PLM-NH2)"
  value_relation_sign: "<"
  pIC50: 5.00
- compound: "CSCC[C@H](NC(=O)[C@H](CC(C)C)NC(=O)CNC(=O)[C@@H](NC(=O)[C@H](Cc1ccccc1)NC(=O)[C@H](CCC(N)=O)NC(=O)[C@H](CCC(N)=O)NC(=O)[C@@H]1CCCN1C(=O)[C@H](CCCCN)NC(=O)[C@@H]1CCCN1C(=O)[C@@H](N)CCCN=C(N)N)[C@@H]1CCc2cc3ccccc3cc21)C(N)=O"
  value_relation_sign: "="
  pIC50: 6.74
- compound: "CSCC[C@H](NC(=O)[C@H](CC(C)C)NC(=O)CNC(=O)[C@H](Cc1ccccc1)NC(=O)[C@@H](NC(=O)[C@H](CCC(N)=O)NC(=O)[C@H](CCC(N)=O)NC(=O)[C@@H]1CCCN1C(=O)[C@H](CCCCN)NC(=O)[C@@H]1CCCN1C(=O)[C@@H](N)CCCN=C(N)N)C1CCc2cc3ccccc3cc21)C(N)=O (stereo partly drawn)"
  value_relation_sign: "="
  pIC50: 5.80
